# reported mass density; entries follow
Conditions: 293.15 K; 101.33 kPa; Liquid; Vibrating tube method
Give the quantity in kg/m3, number only.

Consider the following illustrative entries.
>>> assay_value("CCCCn1cc[n+](C)c1.COS(=O)(=O)[O-] [1-butyl-3-methylimidazolium methyl sulfate]")
1214.7
>>> assay_value("CCCCCCCCCCCCCC[P+](CCCCCC)(CCCCCC)CCCCCC.O=S(=O)([N-]S(=O)(=O)C(F)(F)F)C(F)(F)F")
1069.1
>>> assay_value("CC(=O)[O-].CCCCCCCCCCCCCC[P+](CCCCCC)(CCCCCC)CCCCCC [trihexyl(tetradecyl)phosphonium acetate]")
894.5

Ask: I have this compound here, CC(=O)[O-].CCCCn1cc[n+](C)c1 [1-butyl-3-methylimidazolium acetate] , and I need its recorded mass density.
Reply: 1056.2

Where these numbers come from: the NIST ThermoML archive (doi:10.1016/j.jct.2009.01.012)
